Test system: SF-295 CNS
Assay: NCI-60 one-dose screen, 48 h (100 = growth as untreated, 0 = no growth, -100 = all killed)
Details: 10 µM unless noted
This is part of a sample that, as a whole, favours compounds with a hit. Of some 83,000 tested, about 20% had one in any assay.
Measured growth by item
Answer format: numeric, % implied, no suffix.

Reference set (3 entries):
N#Cc1nc(-c2ccc(Cl)cc2)oc1S(=O)(=O)N1CCN(c2ccc(F)cc2)CC1
101
CCCCCCCCCCCCCCCCOCCCOP(=O)(O)C1CCCN(O)C1=O (stereo not given)
3.46
CNC(=O)c1[nH]cc(-c2ccc(OC)cc2)c1-c1cc(OC)c2c(c1OC)OCO2
97.6

Sure, the documented growth for Cc1cc(N2CCN(CCNc3ccnc4cc(Cl)ccc34)CC2)nc(N2CCOCC2)n1 is 75.5
